- Tested on: SNB-19 CNS
- METHOD: NCI tumour cell line growth inhibition, 48 h
Each item that follows carries a reported TGI.

// solved cases for TGI follow
COc1cc2c(c(OC)c1OC)C(=O)[C@H]1OC(=O)N[C@@H]21 ... > 100 µM
S=c1ssc(Sc2ccccn2)c1Cl ... 41 µM
O=C(NCCNCCO)N/N=C/c1ccc([N+](=O)[O-])cc1 ... > 100 µM

Task: Name the recorded TGI of the molecule listed here: COc1cc2cc(Oc3ccc(NC(=O)c4ccc(Cl)c(C(F)(F)F)c4)cc3)c(C)nc2cc1OC
Result: > 100 µM

Task: Recall and state the measured TGI for N=c1oc2ccc(Cl)cc2cc1C(=O)Nc1ccccc1 .
Result: > 100 µM

Task: Return TGI (reported value) for this molecule: Cc1ncc([N+](=O)[O-])n1CCNC(=O)CCCn1cnc([N+](=O)[O-])n1
Result: > 100 µM

Task: Read the entry Fc1ccc(Nc2nc(NCCNc3ccnc4cc(Cl)ccc34)nc(N3CCOCC3)n2)cc1 and write its reported TGI.
Result: 25.9 µM

Task: Specify reported TGI for the molecule shown: CCCCCCCC(=O)N/N=C/c1ccc(Sc2nccn2C)c([N+](=O)[O-])c1
Result: 87 µM

---

- System: MOLT-4 leukemia
- METHOD: NCI tumour cell line growth inhibition, 48 h
OBSERVATION_TYPE: TGI (µM)
Use µM as the unit, but write only the number.

Here are 10 compounds together with their reported answers.
COc1cc(/C=C/C2=NN(c3cccc(S(=O)(=O)O)c3)C3(C2)C(Cl)C(=O)N3c2nc3ccccc3s2)ccc1O (stereo unspecified) ... 44.9
CC(=O)OC1C2(CC3N4C(=O)C5(CO)SSC4(CC31O)C(=O)N5C)OC(C)C(C)(C)C2=O (stereo unspecified) ... 0.0622
CC(=O)Oc1ccccc1C(=O)C1c2cccc(O)c2C(=O)c2c(O)cccc21 ... 6.01
CCc1c2c(nc3cccc(N)c13)-c1cc3c(c(=O)n1C2)COC(=O)[C@]3(O)CC ... 0.15
COc1cnc2c(c1)C(=O)c1c-2n(CCCN2CCCC2)c(=O)c2cc(Cl)ccc12 ... 6.23
CCCCCCCCCCCCC(=O)[O-].CCCCCCCCCCCCC(=O)[O-].CCCCCCCCCCCCC(=O)[O-].CCCCCCCCCCCCC(=O)[O-].[Mo+2].[Mo+2] ... 22.5
O=Cc1cc2c(o1)C(=O)c1ccccc1C2=O ... 4.56
COc1cc2cc(Oc3ccc(NC(=O)c4ccc(Cl)c(C(F)(F)F)c4)cc3)c(C)nc2cc1OC ... 70.5
COC(=O)[C@]1(C)CCC[C@@]2(C)C1CCC1=C[C@@]3(C(C)C)CC[C@]12OO3 (stereo partly specified) ... 83.1
C/C=C(/CCCCNCCCC)[Si](C)(C)C ... 31.2

Task: Give the value of TGI reported for the following: O=C(NN1C(=O)CSC1c1ccc(Cl)cc1)c1[nH]c2ccc(F)cc2c1-c1ccccc1 (stereo unspecified)
Result: 8.17

Task: Note TGI for the compound shown: Cc1ccc(-n2cnc3c(N/N=C4\SCC(=O)N4c4ccccc4)ncnc32)cc1
Result: 5.48

Task: Complete the entry with TGI for COc1ccc(/C=C(\NC(=O)c2ccccc2)C(=O)NN(C)c2ccnc3cc(Cl)ccc23)cc1OC
Result: 47.7

Task: Using the record for CN=C(N)N/N=C(\C)c1ccc2oc3ccc(/C(C)=N/NC(N)=NC)cc3c2c1 , state its measured TGI.
Result: 2.42

Task: Quote TGI reported for Cc1nnc2sc(-c3ccc(-c4ccccc4Cl)o3)nn12 please.
Result: 51.1

Task: Please report TGI for the following compound: Oc1cc(Cl)ccc1Oc1ccc(Cl)cc1Cl
Result: 11.3

Task: Please give the documented TGI of O=c1cccccc1NCCCCCCCCCNc1cccccc1=O
Result: 24.9

Task: Find the measured TGI of CCOC(=O)c1c(C)n(Cc2ccc(Cl)cc2Cl)c2c1cc1oc(=O)c(=O)n3c(Cc4ccccc4)nc2c13 and report it.
Result: 4.55

FYI, the data here is from PubChem BioAssay (NCI).
